- System: AncSZ
- method_notes: phosphorylation enrichment, bacterial display (enrichment ratio); higher = better substrate or ligand; peptides without Tyr show the background
This listing pairs sequences with measured phosphorylation enrichment.
readout: phosphorylation enrichment

residue_codes: VQVAYYTMMMN [SPATA17_Y84]
tested_target: AncSZ
measured_number: 1.81

residue_codes: DLEKTYNTFRS [B4GALNT2_Y538_A533D_YF]
tested_target: AncSZ
measured_number: 0.656

residue_codes: EAKENYGKTLK [CHL1_Y291_T287A]
tested_target: AncSZ
measured_number: 0.655

residue_codes: RIFDFYSARKT [STOX1_Y858_A863T_YF]
tested_target: AncSZ
measured_number: 0.715

residue_codes: CTTIHYMFMCN [TP53_Y234_N235M_YF]
tested_target: AncSZ
measured_number: 1.05

residue_codes: RARPPYTVAAD [ANKZF1_Y572]
tested_target: AncSZ
measured_number: 0.551

residue_codes: HAVYIYDICHV [TWNK_Y508_V507I]
tested_target: AncSZ
measured_number: 2.46

residue_codes: PGQAAYQKVVA [HBB_Y131_V127G]
tested_target: AncSZ
measured_number: 0.68

residue_codes: PESILYRKFTT [NTRK1_Y701]
tested_target: AncSZ
measured_number: 1.14

residue_codes: FADIAYSFRHG [PAH_Y166_N167S_YF]
tested_target: AncSZ
measured_number: 0.62

residue_codes: QSSALYEDHFL [ASS1_Y83_R86H_YF]
tested_target: AncSZ
measured_number: 1.07

residue_codes: RFLERYIYNRQ [HLA-DPB1_Y57_E62Q]
tested_target: AncSZ
measured_number: 1.01

residue_codes: KLNNEHLELNY [MME_Y497_Y497H]
tested_target: AncSZ
measured_number: 0.775

residue_codes: KTTILYKLKLG [ARF1_Y35]
tested_target: AncSZ
measured_number: 1.01

residue_codes: SIDLGYHKDLQ [NF1_Y1169_G1166D]
tested_target: AncSZ
measured_number: 1.17

residue_codes: IFRASYFRRGD [LTK_Y676_YF]
tested_target: AncSZ
measured_number: 0.923

residue_codes: RLLVVYPWTKR [HBB_Y36_Q40K]
tested_target: AncSZ
measured_number: 0.735

residue_codes: SVVVPYELPEV [TP53_Y220_P222L]
tested_target: AncSZ
measured_number: 1.65

residue_codes: TWSPKYTLRSH [STRN3_Y474_N471S]
tested_target: AncSZ
measured_number: 0.735

residue_codes: SISFDYCRVPM [BST2_Y8_T4I_YF]
tested_target: AncSZ
measured_number: 1.65

residue_codes: FSQETYYRVSN [ABCD1_Y180_Q178E]
tested_target: AncSZ
measured_number: 1.26

residue_codes: EQSNPYMVLDI [ROCK2_Y1197]
tested_target: AncSZ
measured_number: 1.19

residue_codes: QISSNYDDAMQ [ZNF281_Y531]
tested_target: AncSZ
measured_number: 0.962

residue_codes: QITQVCGFFDE [PPP2CA_Y127_Y127C_YF]
tested_target: AncSZ
measured_number: 1.56

residue_codes: FPPDGYSRHFE [CTNND1_Y213_YF]
tested_target: AncSZ
measured_number: 0.606

residue_codes: FRDALYKFIVD [PHEX_Y250_M253I_YF]
tested_target: AncSZ
measured_number: 1.02

residue_codes: DGQVNYEGFVQ [CALM1_Y139_E141G]
tested_target: AncSZ
measured_number: 0.996

residue_codes: PAGSGYPAYLG [ATP6V1A_Y374_D371G]
tested_target: AncSZ
measured_number: 0.782

residue_codes: GGQSVYHVHLH [HINT1_Y109]
tested_target: AncSZ
measured_number: 0.619

residue_codes: IKSSIYDNRKE [ARAP2_Y380]
tested_target: AncSZ
measured_number: 1.13

residue_codes: HVIKLYGACSQ [RET_Y791]
tested_target: AncSZ
measured_number: 1.13

residue_codes: TDEYEYDELIV [TGM1_Y136]
tested_target: AncSZ
measured_number: 1.3

residue_codes: LGRTRYQDVTG [MIPEP_Y510_H512D]
tested_target: AncSZ
measured_number: 0.899

residue_codes: VYSIDYYRVGG [NTRK2_Y706_T704I]
tested_target: AncSZ
measured_number: 2.29

residue_codes: RSSKMYPKTRS [LPL_Y329_L330P]
tested_target: AncSZ
measured_number: 0.601

residue_codes: GEDDVYDSVPG [FGR_opt_2018]
tested_target: AncSZ
measured_number: 1.39

residue_codes: LEQQKYTVTID [IKBKB_Y199_V203I]
tested_target: AncSZ
measured_number: 1.27

residue_codes: NNRVFYGNSDR [RS1_Y177]
tested_target: AncSZ
measured_number: 0.437

residue_codes: LICRRYLVMQR [IL3RA_Y328_V323L]
tested_target: AncSZ
measured_number: 2.5

residue_codes: GFVEDYRPPFF [ACVRL1_Y421_I417F_YF]
tested_target: AncSZ
measured_number: 0.944

residue_codes: TRVMEYISRLD [CLTCL1_Y1043]
tested_target: AncSZ
measured_number: 0.762

residue_codes: RIAFQYGVTDL [MYBPC3_Y340]
tested_target: AncSZ
measured_number: 1.41

residue_codes: FHLLPYTIRAM [PARS2_Y93_V95I_YF]
tested_target: AncSZ
measured_number: 0.825

residue_codes: MTRDIYETDFF [INSR_Y1185_YF]
tested_target: AncSZ
measured_number: 1.13

residue_codes: SYCYRYRCAAR [SUMF1_Y344]
tested_target: AncSZ
measured_number: 0.789

residue_codes: MQMEEYRGWVE [BTNL2_Y91]
tested_target: AncSZ
measured_number: 1.22

residue_codes: LIDTVYSSSSA [OR4C12_Y71]
tested_target: AncSZ
measured_number: 1.06

residue_codes: RVLHNYLVWCV [ECEL1_Y400_R404C]
tested_target: AncSZ
measured_number: 1.25

residue_codes: GENTMYAQVFN [LY9_Y603]
tested_target: AncSZ
measured_number: 0.912

residue_codes: TVSTRYTQPQP [SARG_Y259]
tested_target: AncSZ
measured_number: 0.616

residue_codes: QEGPEYWDQQT [HLA-A_Y83_E87Q]
tested_target: AncSZ
measured_number: 2.09

residue_codes: ATDLAYFLVRE [ASL_Y375_K380E_YF]
tested_target: AncSZ
measured_number: 1.54

residue_codes: EEEPVYKAEPE [HCLS1_Y360_E361K]
tested_target: AncSZ
measured_number: 1.06

residue_codes: LSPNMYNSKLW [TARSL2_Y457]
tested_target: AncSZ;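 further: frequency after pTyr selection over input frequency; kinase dosed for 20-30% of maximal phosphorylation in three min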
measured_number: 0.879

residue_codes: TVQVAYFTVMM [SPATA17_Y83_M86V_YF]
tested_target: AncSZ;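 further: frequency after pTyr selection over input frequency; kinase dosed for 20-30% of maximal phosphorylation in three min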
measured_number: 1.44

residue_codes: FCRHNYGAVES [HLA-DRB1_Y112_V114A_YF]
tested_target: AncSZ;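 further: frequency after pTyr selection over input frequency; kinase dosed for 20-30% of maximal phosphorylation in three min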
measured_number: 0.628

residue_codes: WQQQSYLYSGI [CTNNB1_Y30_D32Y]
tested_target: AncSZ;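 further: 11-residue human phosphosite peptides and single-mutation variants displayed on the E. coli surface, counted by deep sequencing, each peptide's frequency after selection divided by its frequency in the unselected input library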;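 further: frequency after pTyr selection over input frequency; kinase dosed for 20-30% of maximal phosphorylation in three min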
measured_number: 1.16
